- Tested on: Escherichia coli TOP10
- assay_protocol: shrunken log2 fold change of peptide-encoding DNA abundance (4.5 h post-induction vs induction); higher = less antimicrobial activity (less host growth inhibition)
- condition_parameters: time post-induction: 4.5 h; library: site-saturation at positions 5, 18, 19, 20
Classification field: true = shrunken log2 fold change at or over -0.02; false = shrunken log2 fold change under -0.02.

See these solved cases before continuing.
1. RRIRPRPPRLPRPRPRPINPPRP false
2. RRIRERPPRLPRPRPRPATPPRP true
3. RRIRCRPPRLPRPRPRPVQQPRP true
4. RRIRVRPPRLPRPRPRPPHVPRP true

In plain terms: is recorded shrunken log2 fold change at least -0.02 for `RRIRIRPPRLPRPRPRPISDPRP` ? false

Now try `RRIRLRPPRLPRPRPRPTHHPRP` . true

Now try `RRIRNRPPRLPRPRPRPPDDPRP` . true

Now try `RRIRIRPPRLPRPRPRPHFRPRP` . false

Now try `RRIRFRPPRLPRPRPRPEHKPRP` . true

Now try `RRIRRRPPRLPRPRPRPKRKPRP` . true

Now try `RRIRLRPPRLPRPRPRPWMRPRP` . true

Now try `RRIRLRPPRLPRPRPRPMEVPRP` . true

Now try `RRIRERPPRLPRPRPRPMRYPRP` . true

Now try `RRIRNRPPRLPRPRPRPEQYPRP` . false

====

- Tested on: Escherichia coli TOP10
- assay_protocol: shrunken log2 fold change of peptide-encoding DNA abundance (4.5 h post-induction vs induction); higher = less antimicrobial activity (less host growth inhibition)
- condition_parameters: time post-induction: 4.5 h; library: site-saturation at positions 5, 18, 19, 20
Categorized via shrunken log2 fold change: low-valued: < 0.001; mid-valued: ≥ 0.001 and < 0.05; high-valued: ≥ 0.05

See these solved cases before continuing.
1. RRIRFRPPRLPRPRPRPLPDPRP high-valued
2. RRIRNRPPRLPRPRPRPHPIPRP mid-valued

Into which category would you place `RRIRPRPPRLPRPRPRPCLYPRP` ? low-valued

Now try `RRIRWRPPRLPRPRPRPEGDPRP` . high-valued

Now try `RRIRVRPPRLPRPRPRPDQAPRP` . low-valued

Now try `RRIRVRPPRLPRPRPRPFDAPRP` . mid-valued

====

Recorded measurements of shrunken log2 fold change, one per entry
- System: Escherichia coli TOP10
- assay_protocol: shrunken log2 fold change of peptide-encoding DNA abundance (4.5 h post-induction vs induction); higher = less antimicrobial activity (less host growth inhibition)
- condition_parameters: time post-induction: 4.5 h; library: site-saturation at positions 5, 18, 19, 20
Answer using only a numeral; do not append any unit.

shrunken log2 fold change of `RRIRFRPPRLPRPRPRPDVPPRP` on Escherichia coli TOP10? -0.356

Now try `RRIRVRPPRLPRPRPRPKEYPRP` . -0.282

Now try `RRIRVRPPRLPRPRPRPKTQPRP` . 0.0766

Now try `RRIRDRPPRLPRPRPRPAEPPRP` . 0.288

Now try `RRIRDRPPRLPRPRPRPPSIPRP` . -0.0216

Now try `RRIRCRPPRLPRPRPRPRTFPRP` . -0.24

====

- Tested on: Escherichia coli TOP10;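 further: peptides expressed intracellularly from a pBAD plasmid library in pooled LB shake-flask culture, induced with 0.3% L-arabinose, DNA abundance read by NGS, three biological replicates, DESeq2 with apeglm shrinkage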
- assay_protocol: shrunken log2 fold change of peptide-encoding DNA abundance (4.5 h post-induction vs induction); higher = less antimicrobial activity (less host growth inhibition)
- condition_parameters: time post-induction: 4.5 h; library: site-saturation at positions 5, 18, 19, 20
measured_parameter: shrunken log2 fold change
Answer using only a numeral; do not append any unit.

1) RRIRGRPPRLPRPRPRPENEPRP 0.686
2) RRIRERPPRLPRPRPRPTYPPRP -1.11
3) RRIRGRPPRLPRPRPRPMTPPRP 1.07
4) RRIRVRPPRLPRPRPRPFEVPRP -0.164
5) RRIRYRPPRLPRPRPRPPPVPRP 0.61

If you can, please state the reported shrunken log2 fold change value of `RRIRLRPPRLPRPRPRPCRRPRP` . -0.0846

Now try `RRIRLRPPRLPRPRPRPSNSPRP` . -0.564

Data origin: the supplement of paper PMC9112550
